- Tested on: KASUMI-10;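 also: ALL cell lines in 384-well plates, five doses spanning 10,000-fold, each plate scaled between vehicle and 100 µmol/L benzalkonium chloride controls, sDSS an adapted area-under-curve metric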
- PROCEDURE_TEXT: selective drug sensitivity score (sDSS, relative to normal bone marrow) (sDSS (score)); higher = more potent and effective on the cell line relative to normal bone marrow cells
- ASSAY_CONTEXT: 72 h
# maps each entry to its selective drug sensitivity score
Hey, just send me the number, nothing else.

[[record]]
compound = "NCC(=O)Nc1ccc(-n2nc(C(F)(F)F)cc2-c2ccc3c(ccc4ccccc43)c2)cc1 (top concentration 25000 nM)"
target_of_assay = "KASUMI-10"
endpoint_value = 0

[[record]]
compound = "Cc1nc(-c2cn3c(n2)-c2ccc(-c4cnn(C(C)(C)C(N)=O)c4)cc2OCC3)n(C(C)C)n1 [Taselisib] (top concentration 1000 nM)"
target_of_assay = "KASUMI-10"
endpoint_value = 1.7


API: the following record is the query input.
Task item: For KASUMI-10, provide selective drug sensitivity score of COc1cc(NS(C)(=O)=O)ccc1Nc1c2ccccc2nc2ccccc12 [Amsacrine] (top concentration 10000 nM) please.
Reply: 11

Hey, just so you know, these numbers are from the supplement of paper PMC8967900.
